Target protein (sequence): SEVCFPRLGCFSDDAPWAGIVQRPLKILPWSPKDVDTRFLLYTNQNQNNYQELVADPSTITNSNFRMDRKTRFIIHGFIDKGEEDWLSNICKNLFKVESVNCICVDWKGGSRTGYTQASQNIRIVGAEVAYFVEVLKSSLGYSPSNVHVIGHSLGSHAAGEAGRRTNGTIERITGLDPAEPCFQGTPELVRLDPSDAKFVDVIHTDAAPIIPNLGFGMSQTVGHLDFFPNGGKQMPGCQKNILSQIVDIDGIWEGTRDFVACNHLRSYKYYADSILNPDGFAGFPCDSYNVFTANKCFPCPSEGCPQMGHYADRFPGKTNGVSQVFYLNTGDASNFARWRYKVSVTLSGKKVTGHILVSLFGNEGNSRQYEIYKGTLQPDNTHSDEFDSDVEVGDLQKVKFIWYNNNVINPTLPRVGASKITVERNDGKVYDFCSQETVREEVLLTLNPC
readoutKind: IC50 (µM)

P = CCCCCCCCCCCC1=C(OC(=O)c2ccc(Br)cc2)C(=O)C=C(OC(=O)c2ccc(Br)cc2)C1=O [Structure #10]
Q = CCCCCCCCCCCC1=C(OC(=O)c2cccc(C)c2)C(=O)C=C(OC(=O)c2cccc(C)c2)C1=O [Structure #13]
R = CCCCCCCCCCCC1=C(OC(=O)c2ccccc2Br)C(=O)C=C(OC(=O)c2ccccc2Br)C1=O [Structure #5]
S = CCCCCCCCCCCC1=C(OC(=O)c2ccc(OC)cc2)C(=O)C=C(OC(=O)c2ccc(OC)cc2)C1=O [Structure #18]
Problem: I'd appreciate it if you could rank the molecules mentioned above by IC50, largest value first. Respond with the label ranking, as requested.
Solution: S, Q, P, R
